Recorded values, source patent US9556201B2.

# SUBJECT OF TEST: UniProt:Q96EB6
# EXPERIMENT NOTES: Mass spectrometry based assay to identify modulators of SIRT1 activity (deacetylation of p53-based acetylated peptide substrate)
# Type: biochemical
# ASSAY CONTEXT: SIRT1 activation
MEASURED ENDPOINT: EC1.5

In [3]: df
Out[3]:
                                    compound  measured_endpoint           measured
 0  Cc1cccc(-c2ccc3c(n2)N(C(=O)Nc2ccncn2)CCO3)c1              EC1.5   A (EC1.5<1.0 μM)
 1  CN1CCN(C(=O)Nc2cccnn2)c2nc(-c3cccc(C(F)(F)F)c3)ccc21              EC1.5   A (EC1.5<1.0 μM)
 2  Cc1cncc(NC(=O)N2CCCOc3ccc(-c4cccc(Cl)c4)nc32)c1              EC1.5   A (EC1.5<1.0 μM)
 3  Cc1cncc(NC(=O)N2CC(C)(C)Oc3ccc(-c4cccc(N(C)C)c4)nc32)c1              EC1.5   A (EC1.5<1.0 μM)
 4  CC1(C)CN(C(=O)Nc2cncc(F)c2)c2nc(-c3cccc(N4CC[C@H](F)C4)c3)ccc2O1              EC1.5   A (EC1.5<1.0 μM)
 5  Cc1cc(-c2ccc3c(n2)N(C(=O)Nc2cc(C)nc(C)c2)CCCO3)ccn1              EC1.5  B (EC1.5 1-25 μM)
 6  Cc1cncc(NC(=O)N2CCCc3ccc(-c4cccc(C(F)(F)F)c4)nc32)c1              EC1.5   A (EC1.5<1.0 μM)
 7  Cc1cncc(NC(=O)N2CCCOc3ccc(-c4ccc(C)nc4)nc32)c1              EC1.5    C (EC1.5>25 μM)
 8  CC1(C)CN(C(=O)Nc2cncc(F)c2)c2nc(-c3cccc(N4CCCC4)c3)ccc2O1              EC1.5   A (EC1.5<1.0 μM)
 9  O=C(Nc1ccncn1)N1CCOc2ccc(-c3cccc(F)c3)nc21              EC1.5   A (EC1.5<1.0 μM)
10  O=C(Nc1cccnc1)N1CCCc2ccc(-c3cccc(Cl)c3)nc21              EC1.5   A (EC1.5<1.0 μM)
11  Cc1csc(NC(=O)N2CCCOc3ccc(-c4cccc(Cl)c4)nc32)n1              EC1.5   A (EC1.5<1.0 μM)
12  O=C(Nc1ccncc1)N1CCCc2ccc(-c3cccc(C(F)(F)F)c3)nc21              EC1.5   A (EC1.5<1.0 μM)
13  O=C(Nc1cccc(OC[C@H](O)CO)n1)N1CCOc2ccc(-c3cccc(C(F)(F)F)c3)nc21              EC1.5   A (EC1.5<1.0 μM)
14  O=C(Nc1ccncc1)N1CCOc2ccc(-c3ccccc3C(F)(F)F)nc21              EC1.5  B (EC1.5 1-25 μM)
15  Cc1csc(NC(=O)N2CC(C)(C)Oc3ccc(-c4cccc(N5CCCC5)c4)nc32)n1              EC1.5   A (EC1.5<1.0 μM)
16  Cc1cc(-c2cccc(C(F)(F)F)c2)nc2c1OCCN2C(=O)Nc1cccc(OCC(O)CO)n1 (centres unmarked)              EC1.5   A (EC1.5<1.0 μM)
17  Cc1cc(C)nc(NC(=O)N2CCCc3ccc(-c4cccc(F)c4)nc32)c1              EC1.5   A (EC1.5<1.0 μM)
18  O=C(Oc1cccnc1)N1CCOc2ccc(-c3cccc(C(F)(F)F)c3)nc21              EC1.5    C (EC1.5>25 μM)
19  Cc1csc(NC(=O)N2CC(C)(C)Oc3ccc(-c4cccc(N(C)C)c4)nc32)n1              EC1.5   A (EC1.5<1.0 μM)

----------
# SUBJECT OF TEST: SIRT1 (Homo sapiens, UniProt Q96EB6)
# Sequence (Q96EB6 whole entry): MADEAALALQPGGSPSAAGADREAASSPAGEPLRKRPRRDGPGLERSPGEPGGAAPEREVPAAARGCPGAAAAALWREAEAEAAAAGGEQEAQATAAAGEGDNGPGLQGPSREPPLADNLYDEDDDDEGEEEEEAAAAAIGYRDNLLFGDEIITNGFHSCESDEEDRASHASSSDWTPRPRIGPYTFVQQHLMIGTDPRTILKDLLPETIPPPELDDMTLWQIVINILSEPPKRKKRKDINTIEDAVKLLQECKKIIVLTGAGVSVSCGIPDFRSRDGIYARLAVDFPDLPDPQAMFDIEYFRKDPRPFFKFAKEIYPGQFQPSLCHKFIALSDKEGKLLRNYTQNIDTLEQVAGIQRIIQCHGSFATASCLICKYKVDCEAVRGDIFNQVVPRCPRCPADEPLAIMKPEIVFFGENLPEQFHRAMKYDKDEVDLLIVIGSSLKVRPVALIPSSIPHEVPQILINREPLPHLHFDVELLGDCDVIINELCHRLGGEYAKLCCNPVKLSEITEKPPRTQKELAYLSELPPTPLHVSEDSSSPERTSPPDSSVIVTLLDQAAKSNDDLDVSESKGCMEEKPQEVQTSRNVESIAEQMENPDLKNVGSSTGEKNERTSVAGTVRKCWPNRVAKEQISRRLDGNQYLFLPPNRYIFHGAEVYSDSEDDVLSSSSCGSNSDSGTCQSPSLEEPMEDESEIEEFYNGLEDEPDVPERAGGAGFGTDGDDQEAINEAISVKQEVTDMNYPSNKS
# EXPERIMENT NOTES: Mass spectrometry based assay to identify modulators of SIRT1 activity (deacetylation of p53-based acetylated peptide substrate)
# Format: biochemical
# ASSAY CONTEXT: 25 min, SIRT1 activation, read-out: % FOLD ACT. (percent maximum fold activation)
MEASURED ENDPOINT: Emax

In [3]: df
Out[3]:
                                    molecule                       subject_of_test  measured
 0  O=C(Oc1cccc(OCC(O)CO)c1)N1CCCc2ccc(-c3cccc(C(F)(F)F)c3)nc21 (stereo not drawn)  SIRT1 (Homo sapiens, UniProt Q96EB6)    ≤ 200%
 1  Cc1cc(OCC(O)CO)nc(NC(=O)N2CCOc3ccc(-c4cccc(C(F)(F)F)c4)nc32)n1 (stereo not drawn)  SIRT1 (Homo sapiens, UniProt Q96EB6)    ≤ 200%
 2  Cc1cncc(NC(=O)N2CC(C)(C)Oc3ccc(-c4cccc(F)c4)nc32)c1  SIRT1 (Homo sapiens, UniProt Q96EB6)    > 200%
 3  Cc1cccc(NC(=O)N2CCCC(F)(F)c3ccc(-c4cccc(Cl)c4)nc32)n1  SIRT1 (Homo sapiens, UniProt Q96EB6)    ≤ 200%
 4  Cc1csc(NC(=O)N2CCCc3ccc(-c4cccc(Cl)c4)nc32)n1  SIRT1 (Homo sapiens, UniProt Q96EB6)    > 200%
 5  Cc1cncc(NC(=O)N2CCCc3ccc(-c4cccc(Cl)c4)nc32)c1  SIRT1 (Homo sapiens, UniProt Q96EB6)    > 200%
 6  Cc1cncc(NC(=O)N2CC(C)(C)Oc3ccc(-c4cccc(N5CC[C@@H](F)C5)c4)nc32)c1  SIRT1 (Homo sapiens, UniProt Q96EB6)    > 200%
 7  CC1(C)CN(C(=O)Nc2cncc(F)c2)c2nc(-c3cccc(Cl)c3)ccc2O1  SIRT1 (Homo sapiens, UniProt Q96EB6)    > 200%
 8  Cc1ccc(-c2ccc3c(n2)N(C(=O)Nc2ccncn2)CCCO3)cn1  SIRT1 (Homo sapiens, UniProt Q96EB6)    ≤ 200%
 9  Cc1cncc(NC(=O)N2CCOc3ncc(-c4cccc(C(F)(F)F)c4)nc32)c1  SIRT1 (Homo sapiens, UniProt Q96EB6)    > 200%
10  CN1CCN(C(=O)Nc2ccncn2)c2nc(-c3cccc(C(F)(F)F)c3)ccc21  SIRT1 (Homo sapiens, UniProt Q96EB6)    > 200%
11  Cc1ccc(-c2ccc3c(n2)N(C(=O)Nc2ccnc(C)c2)CCCO3)cn1  SIRT1 (Homo sapiens, UniProt Q96EB6)    ≤ 200%
12  Cc1cc(C)nc(NC(=O)N2CCCOc3ccc(-c4cccc(Cl)c4)nc32)c1  SIRT1 (Homo sapiens, UniProt Q96EB6)    ≤ 200%
13  Cc1cnccc1NC(=O)N1CCC(C)c2ccc(-c3cccc(C(F)(F)F)c3)nc21 (stereo not drawn)  SIRT1 (Homo sapiens, UniProt Q96EB6)    > 200%
14  O=C(Nc1cc(OCC(O)CO)ccn1)N1CCC(F)(F)c2ccc(-c3cccc(C(F)(F)F)c3)nc21 (stereo not drawn)  SIRT1 (Homo sapiens, UniProt Q96EB6)    > 200%
15  CC1CCN(C(=O)Nc2ccncn2)c2nc(-c3cccc(C(F)(F)F)c3)ccc21 (stereo not drawn)  SIRT1 (Homo sapiens, UniProt Q96EB6)    > 200%
16  O=C(Nc1cccc(N2CC3(CCO3)C2)n1)N1CCc2ccc(-c3cccc(C(F)(F)F)c3)nc21  SIRT1 (Homo sapiens, UniProt Q96EB6)    > 200%
17  Cc1ccc(-c2ccc3c(n2)N(C(=O)Nc2cccc(OC[C@H](O)CO)n2)CCO3)cn1  SIRT1 (Homo sapiens, UniProt Q96EB6)    > 200%
18  O=C(Nc1cncc(OCC(O)CO)n1)N1CCCc2ccc(-c3cccc(C(F)(F)F)c3)nc21 (stereo not drawn)  SIRT1 (Homo sapiens, UniProt Q96EB6)    > 200%
19  CCN1CCCN(C(=O)Nc2ccccn2)c2nc(-c3cccc(Cl)c3)ccc21  SIRT1 (Homo sapiens, UniProt Q96EB6)    ≤ 200%
20  O=C(Nc1cccc(OC[C@H](O)CO)n1)N1CCCc2ccc(-c3ccc4c(c3)CCO4)nc21  SIRT1 (Homo sapiens, UniProt Q96EB6)    > 200%
21  O=C(Nc1ccccn1)N1CCCC(F)(F)c2ccc(-c3cccc(Cl)c3)nc21  SIRT1 (Homo sapiens, UniProt Q96EB6)    ≤ 200%
22  CCN1CCCN(C(=O)Nc2cc(C)nc(C)c2)c2nc(-c3cccc(Cl)c3)ccc21  SIRT1 (Homo sapiens, UniProt Q96EB6)    > 200%
23  CCN1CCCN(C(=O)Nc2ccncc2F)c2nc(-c3cccc(Cl)c3)ccc21  SIRT1 (Homo sapiens, UniProt Q96EB6)    > 200%
24  O=C(Nc1ccnc2cccnc12)N1CCCOc2ccc(-c3cccc(Cl)c3)nc21  SIRT1 (Homo sapiens, UniProt Q96EB6)    > 200%
25  O=C(Nc1ccncn1)N1CCOc2ccc(-c3cccc(F)c3)nc21  SIRT1 (Homo sapiens, UniProt Q96EB6)    > 200%
26  CN1C(=O)CN(C(=O)Nc2cccnn2)c2nc(-c3cccc(C(F)(F)F)c3)ccc21  SIRT1 (Homo sapiens, UniProt Q96EB6)    ≤ 200%
27  CN1CCN(C(=O)Nc2nccs2)c2nc(-c3cccc(C(F)(F)F)c3)ccc21  SIRT1 (Homo sapiens, UniProt Q96EB6)    > 200%
28  O=C(Nc1c(F)c(F)c(F)c(F)c1F)N1CCCOc2ccc(-c3cccc(C(F)(F)F)c3)nc21  SIRT1 (Homo sapiens, UniProt Q96EB6)    ≤ 200%
29  Cc1csc(NC(=O)N2CCC(C)c3ccc(-c4cccc(C(F)(F)F)c4)nc32)n1 (stereo not drawn)  SIRT1 (Homo sapiens, UniProt Q96EB6)    > 200%
